# MIC annotations
- Tested on: Klebsiella pneumoniae
- Test description: Antibacterial activity against Klebsiella pneumoniae MTCC 109 after 18 hrs by TTC staining based broth microdilution method
- Assay type: functional
- Study conditions: MTCC 109, 18 h
# output: bare number, implied unit µg/mL

[
  {
    "Compound": "O=c1oc2ccccc2c(O)c1C(c1ccc(O)cc1)c1c(O)c2ccccc2oc1=O",
    "Result type": "MIC",
    "Measured number": 3120
  },
  {
    "Compound": "Cc1ccc(C(c2c(O)c3ccccc3oc2=O)c2c(O)c3ccccc3oc2=O)cc1",
    "Result type": "MIC",
    "Measured number": 390
  },
  {
    "Compound": "O=c1oc2ccccc2c(O)c1C(c1cccc(Br)c1)c1c(O)c2ccccc2oc1=O",
    "Result type": "MIC",
    "Measured number": 390
  }
]

Documented MIC of Cc1[nH][nH]c(=O)c1C(c1cccc(F)c1)C1C(=O)NC(=O)NC1=O (stereo not given) : 390

Documented MIC of O=c1oc2ccccc2c(O)c1C(c1ccc([N+](=O)[O-])cc1)c1c(O)c2ccccc2oc1=O : 390

----------
- Tested on: Klebsiella pneumoniae
- Test description: Antibacterial activity against Klebsiella pneumoniae MTCC 109 after 18 hrs by TTC staining based broth microdilution method
- Format: functional
- Study conditions: MTCC 109, 18 h
Result type: MIC (µg/mL)
# output: bare number, implied unit µg/mL

Example compounds with recorded MIC:
[
  {
    "Compound": "Cc1[nH][nH]c(=O)c1C(c1ccc(N(C)C)cc1)C1C(=O)NC(=O)NC1=O (centres undefined)",
    "Test target": "Klebsiella pneumoniae",
    "Units": "µg/mL",
    "MIC": 3120
  },
  {
    "Compound": "O=c1oc2ccccc2c(O)c1C(c1ccco1)c1c(O)c2ccccc2oc1=O",
    "Test target": "Klebsiella pneumoniae",
    "Units": "µg/mL",
    "MIC": 780
  },
  {
    "Compound": "CCOc1ccc(C(c2c(O)c3ccccc3oc2=O)c2c(O)c3ccccc3oc2=O)cc1",
    "Test target": "Klebsiella pneumoniae",
    "Units": "µg/mL",
    "MIC": 780
  },
  {
    "Compound": "O=C(N[C@H](CO)[C@H](O)c1ccc([N+](=O)[O-])cc1)C(Cl)Cl",
    "Test target": "Klebsiella pneumoniae",
    "Units": "µg/mL",
    "MIC": 90
  },
  {
    "Compound": "Cc1[nH][nH]c(=O)c1C(c1ccccc1[N+](=O)[O-])C1C(=O)NC(=O)NC1=O (centres undefined)",
    "Test target": "Klebsiella pneumoniae",
    "Units": "µg/mL",
    "MIC": 3120
  }
]

For the next question, use this compound.
Documented MIC of COc1ccc(C(c2c(C)[nH][nH]c2=O)C2C(=O)NC(=O)NC2=O)cc1 (centres undefined) : 3120

----------
- System: Klebsiella pneumoniae
- Test description: Antibacterial activity against Klebsiella pneumoniae MTCC 109 assessed as zone of inhibition at 100 uL after 24 hrs by agar well-diffusion method
- Assay type: functional
# inhibition zone (IZ) annotations

Example compounds with recorded inhibition zone (IZ):
[
  {
    "Compound": "O=c1oc2ccccc2c(O)c1C(c1ccc(O)cc1)c1c(O)c2ccccc2oc1=O",
    "Test target": "Klebsiella pneumoniae",
    "Result type": "inhibition zone (IZ)",
    "Result": "10 mm"
  },
  {
    "Compound": "Cc1[nH][nH]c(=O)c1C(c1ccc(N(C)C)cc1)C1C(=O)NC(=O)NC1=O (stereo not given)",
    "Test target": "Klebsiella pneumoniae",
    "Result type": "inhibition zone (IZ)",
    "Result": "10 mm"
  },
  {
    "Compound": "Cc1[nH][nH]c(=O)c1C(c1ccc(Cl)cc1)C1C(=O)NC(=O)NC1=O (stereo not given)",
    "Test target": "Klebsiella pneumoniae",
    "Result type": "inhibition zone (IZ)",
    "Result": "21 mm"
  },
  {
    "Compound": "COc1cc(C(C2=C(O)CC(C)(C)CC2=O)C2=C(O)CC(C)(C)CC2=O)cc(OC)c1OC",
    "Test target": "Klebsiella pneumoniae",
    "Result type": "inhibition zone (IZ)",
    "Result": "0 mm"
  }
]

For the next question, use this compound.
Documented inhibition zone (IZ) of COc1cc(C(c2c(C)[nH][nH]c2=O)C2C(=O)NC(=O)NC2=O)cc(OC)c1OC (stereo not given) : 19 mm

----------
- Test system: Bacillus cereus
- Test description: Antibacterial activity against Bacillus cereus MTCC 430 after 18 hrs by TTC staining based broth microdilution method
- Assay type: functional
- Study conditions: MTCC 430, 18 h
Result type: log10 MIC (log10 of the value in µg/mL)
In plain terms, each number is the log10 of measured MIC in µg/mL.

Example compounds with recorded log10 MIC:
[
  {
    "Compound": "Cc1[nH][nH]c(=O)c1C(c1ccc(N(C)C)cc1)C1C(=O)NC(=O)NC1=O (stereo not drawn)",
    "Measured number": 3.49
  },
  {
    "Compound": "COc1cc(C(c2c(C)[nH][nH]c2=O)C2C(=O)NC(=O)NC2=O)ccc1O (stereo not drawn)",
    "Measured number": 2.59
  },
  {
    "Compound": "O=c1oc2ccccc2c(O)c1C(c1cccc(F)c1)c1c(O)c2ccccc2oc1=O",
    "Measured number": 2.89
  },
  {
    "Compound": "O=c1oc2ccccc2c(O)c1C(c1ccco1)c1c(O)c2ccccc2oc1=O",
    "Measured number": 3.49
  },
  {
    "Compound": "O=c1oc2ccccc2c(O)c1C(c1ccccc1)c1c(O)c2ccccc2oc1=O",
    "Measured number": 2.28
  }
]

log10 MIC for Bacillus cereus with input COc1cc(C(c2c(C)[nH][nH]c2=O)C2C(=O)NC(=O)NC2=O)cc(OC)c1OC (stereo not drawn) equals 3.19

----------
# inhibition zone (IZ) annotations
- System: Streptococcus pyogenes
- Test description: Antibacterial activity against Streptococcus pyogenes MTCC 1925 assessed as zone of inhibition at 100 uL after 24 hrs by agar well-diffusion method
- Type: functional
# output: bare number, implied unit mm

Example compounds with recorded inhibition zone (IZ):
[
  {
    "Compound": "Cc1[nH][nH]c(=O)c1C(c1ccc(N(C)C)cc1)C1C(=O)NC(=O)NC1=O (stereo unspecified)",
    "Units": "mm",
    "inhibition zone (IZ)": 10
  },
  {
    "Compound": "O=c1oc2ccccc2c(O)c1C(c1ccc(O)cc1)c1c(O)c2ccccc2oc1=O",
    "Units": "mm",
    "inhibition zone (IZ)": 10
  },
  {
    "Compound": "O=c1oc2ccccc2c(O)c1C(c1ccc(Cl)cc1)c1c(O)c2ccccc2oc1=O",
    "Units": "mm",
    "inhibition zone (IZ)": 24
  },
  {
    "Compound": "COc1ccc(C(c2c(C)[nH][nH]c2=O)C2C(=O)NC(=O)NC2=O)cc1 (stereo unspecified)",
    "Units": "mm",
    "inhibition zone (IZ)": 13
  },
  {
    "Compound": "O=C(N[C@H](CO)[C@H](O)c1ccc([N+](=O)[O-])cc1)C(Cl)Cl [CHLORAMPHENICOL]",
    "Units": "mm",
    "inhibition zone (IZ)": 36
  }
]

For the next question, use this compound.
Documented inhibition zone (IZ) of O=c1oc2ccccc2c(O)c1C(c1ccccc1)c1c(O)c2ccccc2oc1=O : 23

----------
- System: Klebsiella pneumoniae
- Test description: Antibacterial activity against Klebsiella pneumoniae MTCC 109 after 18 hrs by TTC staining based broth microdilution method
- Type: functional
- Study conditions: MTCC 109, 18 h
Result type: MIC (µg/mL)
# output: bare number, implied unit µg/mL

Example molecules with recorded MIC:
[
  {
    "Molecule": "COc1cc(C(c2c(C)[nH][nH]c2=O)C2C(=O)NC(=O)NC2=O)ccc1O (stereo not drawn)",
    "MIC [µg/mL]": 780
  },
  {
    "Molecule": "COc1ccc(C(c2c(C)[nH][nH]c2=O)C2C(=O)NC(=O)NC2=O)cc1OC (stereo not drawn)",
    "MIC [µg/mL]": 390
  }
]

For the next question, use this molecule.
Documented MIC of Cc1[nH][nH]c(=O)c1C(c1ccc(Cl)cc1)C1C(=O)NC(=O)NC1=O (stereo not drawn) : 390

----------
- Tested on: Bacillus cereus
- Test description: Antibacterial activity against Bacillus cereus MTCC 430 after 18 hrs by TTC staining based broth microdilution method
- Type: functional
- Study conditions: MTCC 430, 18 h
Result type: log10(MIC) (log10 of the value in µg/mL)
In plain terms, each number is the log10 of measured MIC in µg/mL.

Example compounds with recorded log10(MIC):
[
  {
    "Compound": "Cc1[nH][nH]c(=O)c1C(c1cccc(F)c1)C1C(=O)NC(=O)NC1=O (configuration not stated)",
    "Measured number": 2.89
  },
  {
    "Compound": "Cc1[nH][nH]c(=O)c1C(c1cccc([N+](=O)[O-])c1)C1C(=O)NC(=O)NC1=O (configuration not stated)",
    "Measured number": 3.19
  },
  {
    "Compound": "Cc1[nH][nH]c(=O)c1C(c1ccc(Br)cc1)C1C(=O)NC(=O)NC1=O (configuration not stated)",
    "Measured number": 2.89
  },
  {
    "Compound": "Cc1[nH][nH]c(=O)c1C(c1ccc(Cl)cc1)C1C(=O)NC(=O)NC1=O (configuration not stated)",
    "Measured number": 3.19
  },
  {
    "Compound": "COc1ccc(C(c2c(O)c3ccccc3oc2=O)c2c(O)c3ccccc3oc2=O)cc1OC",
    "Measured number": 2.89
  },
  {
    "Compound": "CCOc1ccc(C(c2c(O)c3ccccc3oc2=O)c2c(O)c3ccccc3oc2=O)cc1",
    "Measured number": 3.49
  }
]

Documented log10(MIC) of Cc1[nH][nH]c(=O)c1C(c1ccccc1[N+](=O)[O-])C1C(=O)NC(=O)NC1=O (configuration not stated) : 3.80

Documented log10(MIC) of O=c1oc2ccccc2c(O)c1C(c1ccc(O)cc1)c1c(O)c2ccccc2oc1=O : 3.80

Documented log10(MIC) of O=c1oc2ccccc2c(O)c1C(c1ccccc1Cl)c1c(O)c2ccccc2oc1=O : 3.49
